Can you tell me MMP1 % inhibition for the items I'm about to list?
biological target: MMP-1 (Homo sapiens); experiment: MMP-1 inhibition (thiopeptide or fluorescent peptide substrate); type: biochemical; details: printed in the MMP1 IC50 column; concentration not given
Write the value in % as a bare number.

Could you share which MMP1 % inhibition value was measured for `CCCCCC#CCOc1ccc(S(=O)(=O)C2(C(=O)NO)CCN(Cc3ccc(Br)cc3)CC2)cc1` ?
32.9

What do we get for `CC#CCOc1ccc(S(=O)(=O)CC2(C(=O)NO)CCN(C(=N)N)CC2)cc1` ?
35

One more compound: `CC#CCOc1ccc(SC2(C(=O)NO)CCN(C(=O)OC(C)(C)C)CC2)cc1`
26

Same again, this time with `CC#CCOc1ccc(SC2(C(=O)NO)CCNCC2)cc1`
24

----------
target: MMP-1 (Homo sapiens); assay: MMP-1 inhibition (thiopeptide or fluorescent peptide substrate); format: biochemical; conditions: read-out: MMP1 IC50
Where a name gives a salt, the structure may show the parent alone.
Exercise: state measured IC50 for each of the compounds provided.
Lab book: enter the figure in µM, no units written.

Given the entry `C#CCOc1ccc(S(=O)(=O)C2(C(=O)NO)CCN(Cc3ccc(Br)cc3)CC2)cc1` , report its measured IC50.
0.143

Try this compound next: `CC#CCOc1ccc(S(=O)(=O)C2(C(=O)NO)CCN(C(C)=O)CC2)cc1`
4.08

Now consider CC#CCOc1ccc(S(=O)(=O)C2(C(=O)NO)CCN(Cc3ccc(C(=O)O)cc3)CC2)cc1 [Example 78, hydrochloride] .
1.05

Note, next up: `CC#CCOc1ccc(S(=O)(=O)CC2(C(=O)NO)CCN(Cc3ccccc3)CC2)cc1`
2.68

Next compound: CC#CCOc1ccc(S(=O)(=O)C2(C(=O)NO)CCN(Cc3ccc(C(=O)OC)cc3)CC2)cc1 [Example 77, hydrochloride]
2.19

Now consider CC#CCOc1ccc(S(=O)(=O)C2(C(=O)NO)CCN(Cc3ccc(C(N)=O)cc3)CC2)cc1 [Example 79, hydrochloride] and answer again.
2.42

Now this one: `CC#CCOc1ccc(S(=O)(=O)C2(C(=O)NO)CCN(Cc3ccc(OC)cc3)CC2)cc1`
2.57

// query: `CC#CCOc1ccc(S(=O)(=O)CC2(C(=O)NO)CCN(C(C)=O)CC2)cc1`
3.9

Follow-up entry: `CC#CCOc1ccc(S(=O)(=O)C2(C(=O)NO)CCN(S(=O)(=O)C(F)(F)F)CC2)cc1`
4

Quick one: `CC#CCOc1ccc(S(=O)(=O)C2(C(=O)NO)CCN(C(=O)c3cccs3)CC2)cc1`
3.12

----------
Structures can show the parent of a compound that is named as a salt.
Record: IC50 reported on UniProtKB P14780.
State just the number; it will be interpreted in nM.

Give the reported IC50 for `C#CCOc1ccc(S(=O)(=O)C2(C(=O)NO)CCN(Cc3ccc(OC)cc3)CC2)cc1` (system: UniProtKB P14780).
15.4

And what about the compound `CC#CCOc1ccc(S(=O)(=O)C2(C(=O)NO)CCN(C(=O)OCC)CC2)cc1` ?
1330

Could you do the same for `CC#CCOc1cccc(S(=O)(=O)C2(C(=O)NO)CCN(Cc3ccccc3)CC2)c1` , please?
3500

Here is the next compound: `CC#CCOc1ccc(S(=O)(=O)C2(C(=O)NO)CCN(C(C)C)CC2)cc1`
1810

And then CC#CCOc1ccc(S(=O)(=O)CC2(C(=O)NO)CCN(CC#CC)CC2)cc1 [Example 37, hydrochloride] , what is it?
8580

Do the same for `O=C(NO)C1(S(=O)(=O)c2ccc(OCC#CCN3CCOCC3)cc2)CCN(Cc2ccc(Br)cc2)CC1` please
2000

----------
target: MMP-9 (Homo sapiens); assay: MMP-9 inhibition (thiopeptide or fluorescent peptide substrate); type: biochemical; settings: printed in the MMP9 IC50 column; concentration not given
Sequence (P14780 94-707): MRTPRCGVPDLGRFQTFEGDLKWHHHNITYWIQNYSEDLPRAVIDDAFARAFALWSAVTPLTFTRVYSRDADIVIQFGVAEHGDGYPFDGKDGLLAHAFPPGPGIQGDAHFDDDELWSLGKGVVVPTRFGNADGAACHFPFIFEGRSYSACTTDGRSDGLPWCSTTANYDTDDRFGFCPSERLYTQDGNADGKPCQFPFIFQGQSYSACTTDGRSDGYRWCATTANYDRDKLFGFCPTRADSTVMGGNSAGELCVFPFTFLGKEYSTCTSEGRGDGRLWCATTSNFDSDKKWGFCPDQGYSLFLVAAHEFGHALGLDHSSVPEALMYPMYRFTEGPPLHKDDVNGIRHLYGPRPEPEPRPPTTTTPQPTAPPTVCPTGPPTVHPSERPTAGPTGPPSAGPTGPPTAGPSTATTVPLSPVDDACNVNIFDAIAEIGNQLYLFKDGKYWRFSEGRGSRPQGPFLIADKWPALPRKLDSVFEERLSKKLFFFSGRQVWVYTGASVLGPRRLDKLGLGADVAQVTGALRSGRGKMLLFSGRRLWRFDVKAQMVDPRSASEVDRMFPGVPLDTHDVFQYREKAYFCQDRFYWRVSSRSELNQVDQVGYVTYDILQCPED
readout: MMP9 % inhibition (%)
Respond numerically; units are % and should not be typed.

For the compound `CC#CCOc1ccc(SC2(C(=O)NO)CCNCC2)cc1` , what MMP9 % inhibition is on record?
25

One more compound: `CCCCCC#CCOc1ccc(S(=O)(=O)C2(C(=O)NO)CCN(Cc3ccc(Br)cc3)CC2)cc1`
58.9

What about this compound? `CC#CCOc1ccc(SC2(C(=O)NO)CCN(C(=O)OC(C)(C)C)CC2)cc1`
21

Also need `CC#CCOc1ccc(S(=O)(=O)CC2(C(=O)NO)CCN(C(=N)N)CC2)cc1` , thanks.
50.6

----------
biological target: MMP-1 (Homo sapiens); assay: MMP-1 inhibition (thiopeptide or fluorescent peptide substrate); type: biochemical; conditions: cells that print nM; read-out: MMP1 IC50
readout: IC50
Could you write the number and then its unit?

For the molecule `CC#CCOc1ccc(S(=O)(=O)C2(C(=O)NO)CCN(Cc3ccc(OCCN4CCCCC4)cc3)CC2)cc1` , what IC50 is on record?
1990 nM

Likewise for CC#CCOc1ccc(S(=O)(=O)C2(C(=O)NO)CCCN(CC)C2)cc1 (stereo not drawn) ?
5670 nM

Okay, and `CC#CCOc1ccc(S(=O)(=O)C2(C(=O)NO)CCN(Cc3cccnc3)CC2)cc1` ?
3210 nM

Okay, and `C#CCOc1ccc(S(=O)(=O)C2(C(=O)NO)CCN(Cc3ccc(OC)cc3)CC2)cc1` ?
106 nM

Try this molecule too: `CC#CCOc1ccc(S(=O)(=O)C2(C(=O)NO)CCOCC2)cc1`
2640 nM

Could you do the same for `C#CCOc1ccc(S(=O)(=O)C2(C(=O)NO)CCN(Cc3ccc(Cl)cc3)CC2)cc1` , please?
91 nM

----------
molecular target: MMP-13 (Homo sapiens, UniProt P45452); assay: MMP-13 inhibition (thiopeptide or fluorescent peptide substrate); type: biochemical; details: MMP13 IC50; concentration not given
Please provide measured MMP13 % inhibition for the entries that follow.
Please state the number and follow it with the unit.

Could you tell me which MMP13 % inhibition is on file for CCCCCC#CCOc1ccc(S(=O)(=O)C2(C(=O)NO)CCN(Cc3ccc(Br)cc3)CC2)cc1 [Example 6] ?
60%

Could you do the same for CC#CCOc1ccc(S(=O)(=O)CC2(C(=O)NO)CCN(CC)CC2)cc1 [Example 46] , please?
55.6%

Now give it for CC#CCOc1ccc(SC2(C(=O)NO)CCNCC2)cc1 [Example 15] too.
24%

Request: CC#CCOc1ccc(SC2(C(=O)NO)CCN(C(=O)OC(C)(C)C)CC2)cc1 [Example 14]
32%

----------
Molecular target: MMP-1 (Homo sapiens, UniProt P03956)
Sequence (P03956 100-469): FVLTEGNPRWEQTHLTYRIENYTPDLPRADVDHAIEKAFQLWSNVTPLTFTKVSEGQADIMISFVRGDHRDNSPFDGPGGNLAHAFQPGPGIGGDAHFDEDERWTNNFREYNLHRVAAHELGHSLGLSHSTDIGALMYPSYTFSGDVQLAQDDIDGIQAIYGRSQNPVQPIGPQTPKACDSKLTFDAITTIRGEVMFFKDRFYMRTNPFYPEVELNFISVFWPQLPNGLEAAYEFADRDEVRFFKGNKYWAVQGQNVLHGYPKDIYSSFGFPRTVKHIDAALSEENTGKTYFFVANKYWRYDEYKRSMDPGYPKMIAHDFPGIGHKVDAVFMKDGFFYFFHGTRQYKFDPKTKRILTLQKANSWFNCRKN
Assay: MMP-1 inhibition (thiopeptide or fluorescent peptide substrate)
Format: biochemical
Conditions: read-out: MMP1 IC50
Protocol: These standard pharmacological test procedures are based on the cleavage of a thiopeptide substrates such as Ac-Pro-Leu-Gly(2-mercapto-4-methyl-pentanoyl)-Leu-Gly-OEt by the matrix metalloproteinases MMP-1, MMP-13 (collagenases) or MMP-9 (gelatinase), which results in the release of a substrate product that reacts colorimetrically with DTNB (5,5′-dithiobis(2-nitro-benzoic acid)). The enzyme activity is measured by the rate of the color increase. […]
Structures can show the parent of a compound that is named as a salt.
Returns: string. Value is met if measured IC50 is below 3 µM, and not met if it is greater than or equal to it.

Say whether its IC50 is strictly beneath 3 µM. Entry: `CC#CCOc1ccc(S(=O)(=O)CC2(C(=O)NO)CCN(C(=O)OC)CC2)cc1`
not met

What do you get for `CC#CCOc1ccc(S(=O)(=O)C2(C(=O)NO)CCN(Cc3ccc(C#N)cc3)CC2)cc1` ?
not met

Lookup `O=C(NO)C1(S(=O)(=O)c2ccc(OCC#CCN3CCCCC3)cc2)CCN(Cc2ccc(Br)cc2)CC1`
not met

Next compound: `CC#CCOc1ccc(SCC2(C(=O)NO)CCN(C(=O)OC(C)(C)C)CC2)cc1`
not met

One more compound: `CCC#CCOc1ccc(S(=O)(=O)C2(C(=O)NO)CCN(Cc3ccc(Br)cc3)CC2)cc1`
met

Another compound to look at: `CC#CCOc1ccc(S(=O)(=O)C2(C(=O)NO)CCN(Cc3ccccc3)CC2)cc1`
met

`CC#CCOc1ccc(S(=O)(=O)CC2(C(=O)NO)CCN(CC#CCO)CC2)cc1` ?
not met

// query: `CC#CCOc1ccc(S(=O)(=O)C2(C(=O)NO)CCN(C(=O)OCC)CC2)cc1`
met

Try CC#CCOc1ccc([S+]([O-])C2(C(=O)NO)CCN(Cc3ccc(Br)cc3)CC2)cc1 (stereo not shown) [Example 82, hydrochloride] next.
not met

Now this one: `CC#CCOc1ccc(S(=O)(=O)C2(C(=O)NO)CCN(Cc3ccc(Cl)cc3)CC2)cc1`
not met

Same thing, different compound: `CC#CCOc1ccc(S(=O)(=O)CC2(C(=O)NO)CCN(C(=O)OCc3ccccc3)CC2)cc1`
met

Ok, now `CC#CCOc1ccc(SCC2(C(=O)NO)CCNCC2)cc1`
not met

Entry `CC#CCOc1ccc(S(=O)(=O)C2(C(=O)NO)CCN(Cc3ccc(Br)cc3)CC2)cc1` please
not met

Also check `CC#CCOc1ccc(S(=O)(=O)C2(C(=O)NO)CCN(S(=O)(=O)c3ccc(OC)cc3)CC2)cc1`
not met

`CC#CCOc1ccc(S(=O)(=O)C2(C(=O)NO)CCN(C(=O)OC(C)(C)C)CC2)cc1` , same question.
met
